- PROCEDURE_DETAILS: Zn^2+ titration of ZIGIRs by fluorescence emission (Hill plot)
- Assay type: binding
- EXPERIMENTAL_CONTEXT: Table 2
EXPERIMENTAL_ENDPOINT: Kd (nM)

COMPOUND: CN(C)c1ccc2c(-c3ccc(NCCN(CCc4ccccn4)Cc4ccccn4)cc3C(=O)[O-])c3ccc(=[N+](C)C)cc-3oc2c1 [ZIGIR-2]
ASSAY_RESULT: 810

----------
Kd values for the compounds below.
- PROCEDURE_DETAILS: Zn^2+ titration of ZIGIRs by fluorescence emission (Hill plot)
- Format: binding
- EXPERIMENTAL_CONTEXT: 100 mM HEPES pH 7.4

MOLECULAR_STRING: CN=c1ccc2c(-c3ccc(NCCN(CCc4ccccn4)Cc4ccccn4)cc3C(=O)O)c3ccc(NC)cc3oc-2c1
Kd / nM: 290

MOLECULAR_STRING: CN(C)c1ccc2c(-c3ccc(NCCN(CCc4ccccn4)Cc4ccccn4)cc3C(=O)[O-])c3ccc(=[N+](C)C)cc-3oc2c1
Kd / nM: 310

Cited source: patent US11649228B2
